Tested on: UACC-257 melanoma
Test: NCI tumour cell line growth inhibition, 48 h
recorded-metric: TGI

>>> df
                           compound  recorded_metric    result
0  O=C1CCCCCCCCCCOC(=O)CCCCCCCCCCO1              TGI  > 100 µM

Asked: Can you look up the measured TGI of COc1cc(/C=C/C2=NN(c3cccc(S(=O)(=O)O)c3)C3(C2)SCC(=O)N3c2nc3ccccc3s2)cc(OC)c1OC (stereo not drawn) for me?
Given back: > 100 µM

Asked: Again, but for O=C(CC(=O)N1N=C(c2ccccc2)C(N=Nc2ccccc2Cl)C1=O)Nc1ccccc1Cl (stereo not drawn)
Given back: > 100 µM

====

Reported TGI values for the following molecules.
Test system: K-562 leukemia
Test: NCI tumour cell line growth inhibition, 48 h

                                   molecule    study_system    result
0  C=CCCCC(O)c1ccc(C(O)c2cnc3ccccc3c2)o1 (stereo unspecified)  K-562 leukemia   52.6 µM
1  CC(=O)Nc1ccc(Cc2ccc3[nH]c(=O)cc(C)c3c2)cc1  K-562 leukemia  > 100 µM
2  CCOP(=O)(OCC)C(C)(CC)/N=C(\N)NC#N (stereo unspecified)  K-562 leukemia  > 100 µM
3  N/C(=N\C(N)=N\c1nc2ccccc2s1)c1ccnc(Br)c1  K-562 leukemia  > 100 µM
4  COc1cc(CC(=O)c2cc3c(cc2-c2ccccc2)OCO3)cc(OC)c1OC  K-562 leukemia  > 100 µM
5  COC(=O)C1=C(C)NC2=C(C(=O)c3ccccc32)C1c1cn[nH]c1-c1ccccc1 (stereo unspecified)  K-562 leukemia  > 100 µM

Asked: Can you look up the measured TGI of Cc1sc2nc3n(c(=O)c2c1C)N=C(c1ccccc1)CS3 for me?
Given back: > 100 µM

Asked: Again, but for O=c1[nH]c(-c2ccc([N+](=O)[O-])cc2)nc2ccc(Cl)cc12
Given back: 38.8 µM

Asked: Again, but for O=C1c2c(F)c(F)c(F)c(F)c2SC2=Nc3cccc4cccc(c34)N12
Given back: 4.49 µM

Asked: Again, but for Cn1cc(-c2ccc3nnc(C(F)(F)c4ccc5ncccc5c4)n3n2)cn1
Given back: > 100 µM

Asked: Again, but for O=Cc1cn(S(=O)(=O)c2ccccc2)c2ccccc12
Given back: 50 µM

====

Test system: HOP-92 NSCLC
Experiment: NCI tumour cell line growth inhibition, 48 h
recorded-metric: GI50

Examples with answers:
>>> print(df.to_string())
                                   compound  recorded_metric   result
0  O=C(Nc1ccc(Cl)cc1)c1cc2ccccc2cc1OP(=O)(O)O             GI50  2.46 µM
1  CS(=O)(=O)c1ccc(-c2cnc(NCc3ccco3)n3cnnc23)cc1             GI50  21.4 µM

Now, please, on to the next compound.
Asked: Can you look up the measured GI50 of Nc1nc(Cl)nc2c1ncn2C1OC(CO)C(O)C1O (stereo not drawn) for me?
Given back: 6.27 µM

====

Reported GI50 values for the following compounds.
Tested on: SK-OV-3 ovarian
Test: NCI tumour cell line growth inhibition, 48 h

                                   compound  recorded_metric    result
0  C=CCCCC(O)c1ccc(C(O)c2cnc3ccccc3c2)o1 (stereo not given)             GI50  > 100 µM
1          C1C[S][Ge]2([S]CCS1)[S]CCSCC[S]2             GI50  > 100 µM
2  CS(=O)(=O)c1ccc(-c2cnc(NCc3ccco3)n3cnnc23)cc1             GI50  > 100 µM
3          COc1ccc(/C=C/C(=O)c2ccccc2)cc1OC             GI50   37.8 µM

Asked: Return GI50 measured with SK-OV-3 ovarian given this compound: CCOC(=O)Nc1cc(-c2ccc(C)c(NS(C)(=O)=O)c2)nn2c(C)nnc12
Given back: 1.21 µM
